Origin of measurements: the RNAGym collection of RNA variant scans (doi:10.1073/pnas.2313332121)

Quick reference for polymerase ribozyme fitness (log ratio) among some variants
B1: TPR 5TU (parent)
chain: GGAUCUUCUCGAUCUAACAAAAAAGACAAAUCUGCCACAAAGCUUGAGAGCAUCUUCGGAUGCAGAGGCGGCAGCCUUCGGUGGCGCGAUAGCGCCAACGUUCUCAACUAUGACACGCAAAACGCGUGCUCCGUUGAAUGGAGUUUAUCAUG

Variants of: B1
Test: polymerase ribozyme fitness, log enrichment relative to wild type (log ratio); higher = more active; in vitro selection for triplet polymerase activity
Variants at the floor of the assay were thinned out.
assay-metric: polymerase ribozyme fitness (log ratio)

sequence-change | assay-metric | endpoint-value
G46U G88U | polymerase ribozyme fitness (log ratio) | ≤ -4.2
C43A U53G A64U C95U A110U A150C | polymerase ribozyme fitness (log ratio) | ≤ -4.2
G94C G126A C132A | polymerase ribozyme fitness (log ratio) | -2.93
U15G C35G G50C C96G G143U | polymerase ribozyme fitness (log ratio) | ≤ -4.2
A47U C76U | polymerase ribozyme fitness (log ratio) | -0.942
C38U G86A | polymerase ribozyme fitness (log ratio) | -1.16
G34C G58A U77A U82G G86A C105A U127A G141C | polymerase ribozyme fitness (log ratio) | ≤ -4.2
U55G C87A G141C | polymerase ribozyme fitness (log ratio) | -3.74
A24U U45G G92C | polymerase ribozyme fitness (log ratio) | -2.88
C69A C87A A106C G140A | polymerase ribozyme fitness (log ratio) | ≤ -4.2
U77G C93A G143A U146C | polymerase ribozyme fitness (log ratio) | ≤ -4.2
A21U G62C A66C G83U A91U G152A | polymerase ribozyme fitness (log ratio) | ≤ -4.2
A37C A97U | polymerase ribozyme fitness (log ratio) | -0.373
U7A C14G U45A G50A C57A G71C A110U G112U C125G C132U | polymerase ribozyme fitness (log ratio) | ≤ -4.2
A20G A52U C57A G62U C95A G133C A150U | polymerase ribozyme fitness (log ratio) | -1.8
G59C G83A | polymerase ribozyme fitness (log ratio) | -0.754
A49C A52C A91U U130A U134A U135C A142G | polymerase ribozyme fitness (log ratio) | ≤ -4.2
U7G U13A A17U A20C G50A A122C G141U U151G | polymerase ribozyme fitness (log ratio) | ≤ -4.2
C35A U53A U61A G62C A64G A66C C87G G152U | polymerase ribozyme fitness (log ratio) | ≤ -4.2
U15G C27U G84A | polymerase ribozyme fitness (log ratio) | -1.78
A41U G83C G126A | polymerase ribozyme fitness (log ratio) | -2.3
C14U U15C A23U A41U C85A | polymerase ribozyme fitness (log ratio) | ≤ -4.2
U53G C96G U144C | polymerase ribozyme fitness (log ratio) | -3.23
C27U C95U | polymerase ribozyme fitness (log ratio) | -2.39
A24G A97U G140U | polymerase ribozyme fitness (log ratio) | ≤ -4.2
A89C A97U U101G A110G U134G G141A | polymerase ribozyme fitness (log ratio) | ≤ -4.2
G48A A113G A147G G152C | polymerase ribozyme fitness (log ratio) | ≤ -4.2
A12U C85A | polymerase ribozyme fitness (log ratio) | -1.85
U33A G48A U78C G84A C105U | polymerase ribozyme fitness (log ratio) | ≤ -4.2
G68A A106C A120G A138C | polymerase ribozyme fitness (log ratio) | ≤ -4.2
A23C C95U | polymerase ribozyme fitness (log ratio) | -4.12
C69U G84U G133C | polymerase ribozyme fitness (log ratio) | -3.62
U53A C54A A147C | polymerase ribozyme fitness (log ratio) | -2.75
C57U G58U | polymerase ribozyme fitness (log ratio) | 0.297
C18G C36G U78A C85A | polymerase ribozyme fitness (log ratio) | ≤ -4.2
G42C A47C U53A U82C G84A A122G A138U G143C | polymerase ribozyme fitness (log ratio) | ≤ -4.2
C96G A98U U144G | polymerase ribozyme fitness (log ratio) | -0.0548
C38A A64G C69G C87U U134A U151C | polymerase ribozyme fitness (log ratio) | ≤ -4.2
G94C A113G | polymerase ribozyme fitness (log ratio) | -2.8
A26C | polymerase ribozyme fitness (log ratio) | -1.49
A37C A49C C57G C75U A137U G141C | polymerase ribozyme fitness (log ratio) | ≤ -4.2
A26C C57G G80A | polymerase ribozyme fitness (log ratio) | -4.09
C14G A91U A97G | polymerase ribozyme fitness (log ratio) | -3.96
G50A C57U G74U C75G C87A A97C A150G | polymerase ribozyme fitness (log ratio) | ≤ -4.2
U45A G126A | polymerase ribozyme fitness (log ratio) | -2.15
A41G U53A U56C C76A A98G | polymerase ribozyme fitness (log ratio) | -1.92
U4G C79A C93A | polymerase ribozyme fitness (log ratio) | ≤ -4.2
A3C C85U C96U | polymerase ribozyme fitness (log ratio) | -0.556
G59A G94C | polymerase ribozyme fitness (log ratio) | -0.903
G42C U55A A66G U144A | polymerase ribozyme fitness (log ratio) | ≤ -4.2
G83U U127A | polymerase ribozyme fitness (log ratio) | -3.18
A20U G42A G62A G86U U134G G140U | polymerase ribozyme fitness (log ratio) | ≤ -4.2
A3G U44G C57A G59U G68C C87G | polymerase ribozyme fitness (log ratio) | ≤ -4.2
A20U C35U G59C C75U C87U C99U A137U A138U | polymerase ribozyme fitness (log ratio) | ≤ -4.2
A47C A66C G83C U104C G126C U130C C132G A138C | polymerase ribozyme fitness (log ratio) | ≤ -4.2
A22G C108G C123G A150G | polymerase ribozyme fitness (log ratio) | ≤ -4.2
A22U G34A G62C G68C C96A | polymerase ribozyme fitness (log ratio) | ≤ -4.2
C54G C87U | polymerase ribozyme fitness (log ratio) | -3.59
U7G G11A C18A A37G G50A C85U G112U | polymerase ribozyme fitness (log ratio) | ≤ -4.2
A97G C131A | polymerase ribozyme fitness (log ratio) | -2.32
A28U A29U U61A G81A C93A | polymerase ribozyme fitness (log ratio) | ≤ -4.2
A41C C149A | polymerase ribozyme fitness (log ratio) | -4.19
G71U G92U G136A | polymerase ribozyme fitness (log ratio) | -2.26
U13G A49U | polymerase ribozyme fitness (log ratio) | -2.21
C27G A52G G92A | polymerase ribozyme fitness (log ratio) | ≤ -4.2
U90C C95A U102A C132A | polymerase ribozyme fitness (log ratio) | ≤ -4.2
G42C A47G C57A C75G C125G | polymerase ribozyme fitness (log ratio) | ≤ -4.2
G46U C57G G70C U78G C87U G88U G143A U144A | polymerase ribozyme fitness (log ratio) | ≤ -4.2
A40C A89G A150G | polymerase ribozyme fitness (log ratio) | -3.25
A49U G59A A115U A119C | polymerase ribozyme fitness (log ratio) | -3.36
A17U U101A U139G A142U | polymerase ribozyme fitness (log ratio) | -3.82
A21C G59A | polymerase ribozyme fitness (log ratio) | -0.0146
A29U C69A G84A G141A | polymerase ribozyme fitness (log ratio) | ≤ -4.2
A40C C76G U151A | polymerase ribozyme fitness (log ratio) | ≤ -4.2
G81A C87U A91U G112U G143A | polymerase ribozyme fitness (log ratio) | ≤ -4.2
A12U C87G | polymerase ribozyme fitness (log ratio) | -4.2
A16U C38A C75A C114U G143U | polymerase ribozyme fitness (log ratio) | ≤ -4.2
A41C C105A | polymerase ribozyme fitness (log ratio) | -2.1
A19U U55G G86U | polymerase ribozyme fitness (log ratio) | -1.7
C36A C75U G83A A89C C99G C105U C123A C125A | polymerase ribozyme fitness (log ratio) | ≤ -4.2
A23G A40C G81A U145C | polymerase ribozyme fitness (log ratio) | -3.98
G46A C87U A89C G94A A113C | polymerase ribozyme fitness (log ratio) | ≤ -4.2
A47C G65C G88A C103A | polymerase ribozyme fitness (log ratio) | ≤ -4.2
C5U U13A A23G C36U G46A A97U C103U | polymerase ribozyme fitness (log ratio) | ≤ -4.2
G59C G86C C118A | polymerase ribozyme fitness (log ratio) | -2.85
U13G C96A | polymerase ribozyme fitness (log ratio) | -0.681
U56A A73U C79G G88A | polymerase ribozyme fitness (log ratio) | ≤ -4.2
C95U A147U | polymerase ribozyme fitness (log ratio) | 0.673
C57U C95A A97C C123A | polymerase ribozyme fitness (log ratio) | -0.924
A3U A16C A52U C57U C76U G86U | polymerase ribozyme fitness (log ratio) | ≤ -4.2
A40U C54A A110G A120U | polymerase ribozyme fitness (log ratio) | -4.07
